Molecular target: MyD88^TIR (Homo sapiens, UniProt Q99836)
Construct: MyD88 (residues 148–296); 6xHis; made in house; host or cells: E. coli BL21 (DE3)
Sequence (Q99836 148-296): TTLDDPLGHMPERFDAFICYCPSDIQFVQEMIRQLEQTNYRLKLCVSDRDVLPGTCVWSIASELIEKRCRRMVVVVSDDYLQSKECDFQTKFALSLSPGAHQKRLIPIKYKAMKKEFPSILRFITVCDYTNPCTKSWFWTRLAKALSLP
Experiment: T‐Surf phage library (P8 and P3) selection against MyD88^TIR, four rounds, NGS read counts
Type: binding
Settings: P8_MyD88: rank by count before grouping
Experimental: T‐Surf libraries were screened against the immobilized TIR domains of two major human TLR adaptor proteins, MAL^TIR and MyD88^TIR, allowing cross‐species selection of TIR‐binding motifs with 190 946 TIR‐derived peptides in a single binding assay (Scheme 1). Enriched phage pools from the fourth round of selection were analyzed using NGS after barcoding the peptide‐coding regions of the phage pools. […]
Class true (1): Rank (before) at least 2000. Class false (0): Rank (before) below 2000.

Previously resolved entries follow.
YATSSWALNELVYLIM	false (0)
WDFASDMEQVWDRLYY	false (0)

-- ask Entry LADALERYGIMFIIDK : is its Rank (before) no less than 2000?
-- reply false (0)

-- ask Item SSSFALHELATILEAL with Rank (before) of 2000 or above?
-- reply false (0)

-- ask Textbook exercise: given the entry DSVFWDLLRYSLHVTE , state whether its Rank (before) is greater than or equal to 2000.
-- reply true (1)

-- ask Can DYASYDDNDYYWVTHVLLRHL be said to have Rank (before) at or above 2000?
-- reply false (0)

-- ask Kindly determine if Rank (before) recorded for DPHDLDWFYERLVSLL is above or exactly 2000.
-- reply false (0)

* * *

Target: MAL^TIR (Homo sapiens)
Construct: MAL (residues 79–221); 6xHis; made in house; host or cells: E. coli BL21 (DE3)
Assay: T‐Surf phage library (P8 and P3) selection against MAL^TIR, four rounds, NGS read counts
Format: binding
Conditions: P3_MAL pool: P3 T-Surf phage library, 4th round of selection against MAL TIR, share of NGS reads
Note to self: values exactly at 0.004% are Yes. So Population at or above 0.004% is Yes, below is No.

Example entries begin here.
SSFREGLWRLLELIKK	Yes
NQWRNALTAAANLSGR	Yes
YQWRNALTAAANLSGW	Yes
NQWRNTLTAAANLSGW	No
GSFREGLWRLLELSKK	Yes
YAFTGHLRRYLVQRGV	No
KEVEGWRDALTAAANLSGW	No
NQWRNALTAEANLSGW	Yes

-- ask Reported Population reaches at least 0.004% for SSFREGLWRLLVLSKK ?
-- reply No

* * *

Biological target: MAL^TIR (Homo sapiens, UniProt P58753)
Construct: MAL (residues 79–221); 6xHis; made in house; host or cells: E. coli BL21 (DE3)
Sequence (P58753 79-221): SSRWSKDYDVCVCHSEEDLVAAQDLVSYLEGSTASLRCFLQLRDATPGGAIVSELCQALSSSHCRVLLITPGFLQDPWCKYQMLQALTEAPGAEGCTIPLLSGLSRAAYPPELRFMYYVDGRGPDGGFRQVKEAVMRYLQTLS
Test: T‐Surf phage library (P8 and P3) selection against MAL^TIR, four rounds, NGS read counts
Type: binding
Settings: P8_MAL pool: P8 T-Surf phage library, 4th round of selection against MAL TIR, share of NGS reads
Quantity: Population (%)
Report the figure in % without appending any unit label.

Example cases with answers are listed next.
WFYERLVSLILRNTKV	0.00309
LFFWESLKQLLRSVGR	0.0034
AVLYTFLINLTHPTNF	0.00402
WFFERLVSLILRDTKV	0.0034
RSFVAYLFQALANKGI	0.0034

Note: attention shifts to another entry.
-- ask Sample AFLYTFPINLTHPTNF — what was its Population?
-- reply 0.0034
